Values from PubChem BioAssay (NCATS)

test system: SC27B; assay: qHTS profiling for inhibitors of Plasmodium falciparum proliferation (AID 504749); further: nearly all actives have a fitted effect of over 60% in size; conditions: P. falciparum in erythrocytes, SYBR Green DNA, 72 h; series mostly up to 28.7 µM
Records with an inconclusive call do not appear. Calls of active or inactive are those of the source. The call rests on the fitted dose curve; in most records, active means well fitted inhibition curve with a large enough effect; inconclusive means small, poorly fitted or top-dose-only effect; inactive means flat fitted curve, though single readings scatter.
Outcomes you can answer with include only these: active, inactive

// below: answered compounds
// query Look up the recorded call for `C[N+](C)(C)CC(=O)[O-]` in this test.
// result inactive

// query How about this compound: `CCN1C[C@]2(COC)[C@H](O)C[C@H](OC)[C@]34C1C([C@H](OC)[C@H]23)[C@]1(OC(C)=O)C2[C@@H](OC(=O)c3ccccc3)C(O)(C[C@H]24)[C@@H](OC)[C@@H]1O`
// result inactive

// query Field entry: `CCCCCCCCCC[N+](C)(C)CCCCCCCCCC`
// result active

// query Would you kindly repeat that for CC(C)[C@@]1(NC(=O)[C@H]2CC3c4cccc5[nH]cc(c45)C[C@H]3N(C)C2)O[C@@]2(O)C3CCCN3C(=O)[C@@H](Cc3ccccc3)N2C1=O (stereo not given in full) ?
// result active

Further cases:
// query Status in this test for CO[C@H]1[C@@H](O)CC(OC2[C@@H](O)CC(OC3[C@@H](O)C[C@H](OC4CC[C@@]5(C)C(CCC6C5CC(O)[C@]5(C)[C@H](C7=CC(=O)OC7)CCC65O)C4)O[C@@H]3C)O[C@@H]2C)O[C@@H]1C (stereo not given in full) ?
// result inactive

###

molecular target: Peroxisome proliferator-activated receptor delta (Homo sapiens); experiment: qHTS assay for small molecule agonists of peroxisome proliferator-activated receptor delta signaling (AID 588534); conditions: HEK293T PPARdelta-UAS-bla, beta-lactamase ratio, 18 h; series mostly up to 76.7 µM;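 further: 0% = DMSO basal wells and 100% = positive control agonist at 10 µM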
Records with an inconclusive call do not appear. Activity calls are given as the source filed them. Calls come from the whole dose curve.
Your answer must be one of the following: yes (active), no (inactive)

// query Record request — test call for `COC(=O)c1ccc(C)cc1`
// result no

// query Same question for `Oc1ccccc1Cl` please.
// result no

// query # repeat for `CS(C)=O`
// result no

###

test system: Es-2; assay: Primary qHTS to identify gynecologic anti-cancer compounds using libraries of approved drugs and bioactive compounds (AID 1345084); conditions: Gynecologic cancer cell panel viability, ATPlite luminescence, 48 h; series mostly up to 57.5 µM; further: nearly all actives have a fitted effect of over 55% in size
Results filed as inconclusive are left out. The source made the active and inactive calls. Calls come from the whole dose curve; as a rule, active = well fitted cell-killing curve with a large enough effect; inconclusive = small, poorly fitted or top-dose-only effect, or effect the other way; inactive = flat fitted curve, though single readings scatter.
Hi there, use one of these labels in your reply, thanks! 1.0 = active, 0.0 = inactive

// query What outcome does the record of this test show for CC(=O)O[C@H]1C[C@@H](C)O[C@H]2O[C@@H]3CC4CC[C@@H]5C(CC[C@]6(C)[C@@H](C7=CC(=O)OC7)CC[C@]56O)[C@@]4(C=O)C[C@H]3O[C@]21O (some centres not stated) ?
// result 1.0

// query Next up: N#CC(O[C@@H]1O[C@H](CO)[C@@H](O)[C@H](O)[C@H]1O)c1ccccc1 (some centres not stated)
// result 0.0

// query Check `CC(=O)OC[C@]12C[C@H](OC(=O)CC(C)C)C(C)=C[C@H]1O[C@@H]1[C@H](O)[C@@H](O)[C@@]2(C)[C@]12CO2` too.
// result 1.0

// query Request: `C[C@@H](CN1CCC2(CC1)C(=O)NCN2c1cccc(F)c1)NC(=O)c1ccc(Br)cc1`
// result 0.0

// query How about this compound: `C[C@]12CC[C@H](O)C[C@H]1CC[C@@H]1[C@@H]2[C@H](O)C[C@]2(C)[C@@H](c3ccc(=O)oc3)CC[C@]12O`
// result 1.0

// query What would you report for `CCCCCn1cc(C(=O)Cc2ccccc2OC)c2ccccc21` ?
// result 0.0

***
// query For CC(=O)O[C@H]1C(=O)[C@]2(C)C(O)C[C@H]3OC[C@@]3(OC(C)=O)[C@H]2[C@H](OC(=O)c2ccccc2)[C@]2(O)C[C@H](O)C(C)=C1C2(C)C (some centres not stated) , what call appears in the results of this test?
// result 0.0

// query Do the same for `NC(=O)c1ncn2c1CN=C(c1ccccc1Br)c1cc(F)ccc1-2` please
// result 0.0

// query Moving on to the next compound: `Cc1c(Cl)c(OCC(=O)N2CCN(C)CC2)nc2sc(C(=O)NC3CC3)c(N)c12`
// result 0.0

// query What would you report for `C=CCN1CCC2(C)c3cc(O)ccc3C[C@H]1[C@H]2C` ?
// result 0.0

// query Subsequent entry: `CNC(=O)c1cc(C#N)cc(C)c1NC(=O)c1cc(Br)nn1-c1ncccc1Cl`
// result 0.0

// query What do we get for `CN1C(=O)[C@@H](Cc2c[nH]c3ccccc23)N=C(c2ccccc2F)c2ccccc21` ?
// result 0.0

// query Would you mind doing CC12CCC3C(C1)c1c(cc(O)c(C(=O)c4ccccc4)c1OC3(C)C)O2 (configuration not stated) as well?
// result 0.0

// query Also `C[C@]12CC[C@H](O)C[C@@]1(O)CC[C@@H]1[C@@H]2CC[C@]2(C)[C@@H](c3ccc(=O)oc3)CC[C@]12O` , if possible.
// result 0.0

// query Further, for `CC[C@H](C)[C@H](NC(=O)[C@H]1CCCCN1C)C(=O)N(COC(=O)CC(C)C)[C@H](C[C@@H](OC(C)=O)c1nc(C(=O)N[C@@H](Cc2ccc(O)cc2)C[C@H](C)C(=O)O)cs1)C(C)C` ?
// result 1.0

// query Can you check `CC(=O)N1N=C(c2ccc(N)cc2)c2cc3c(cc2C[C@H]1C)OCO3` next?
// result 0.0

// query Now consider CCC1CN2CCc3cc(OC)c(OC)cc3C2CC1CC1=NCCc2cc(O)c(OC)cc21 (configuration not stated) .
// result 0.0
